Biological target: Fes (UniProt P07332)
Sequence (P07332 whole entry, looked up): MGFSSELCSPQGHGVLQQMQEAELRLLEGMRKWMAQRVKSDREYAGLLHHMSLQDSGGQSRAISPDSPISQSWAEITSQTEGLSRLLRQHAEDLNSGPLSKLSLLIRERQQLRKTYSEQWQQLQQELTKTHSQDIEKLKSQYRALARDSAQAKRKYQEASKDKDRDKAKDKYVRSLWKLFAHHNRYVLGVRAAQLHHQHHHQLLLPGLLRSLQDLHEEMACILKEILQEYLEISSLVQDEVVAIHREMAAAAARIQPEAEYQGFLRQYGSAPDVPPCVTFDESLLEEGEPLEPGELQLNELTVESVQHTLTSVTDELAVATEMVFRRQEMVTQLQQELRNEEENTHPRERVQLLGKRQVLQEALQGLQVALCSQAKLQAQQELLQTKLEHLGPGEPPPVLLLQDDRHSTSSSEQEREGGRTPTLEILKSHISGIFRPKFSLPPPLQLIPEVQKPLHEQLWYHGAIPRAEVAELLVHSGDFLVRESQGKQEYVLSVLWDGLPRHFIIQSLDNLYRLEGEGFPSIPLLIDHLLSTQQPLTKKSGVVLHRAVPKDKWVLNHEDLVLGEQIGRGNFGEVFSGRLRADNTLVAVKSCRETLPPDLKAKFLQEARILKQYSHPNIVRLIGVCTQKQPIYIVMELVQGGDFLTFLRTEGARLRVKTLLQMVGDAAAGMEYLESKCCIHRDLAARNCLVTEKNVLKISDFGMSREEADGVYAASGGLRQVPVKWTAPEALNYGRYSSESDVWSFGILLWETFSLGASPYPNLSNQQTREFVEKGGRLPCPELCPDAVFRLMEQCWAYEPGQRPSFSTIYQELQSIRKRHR
Test: phosphorylation enrichment, bacterial display (enrichment ratio); higher = better substrate or ligand; peptides without Tyr show the background;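 further: 11-residue human phosphosite peptides and single-mutation variants displayed on the E. coli surface, counted by deep sequencing, each peptide's frequency after selection divided by its frequency in the unselected input library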;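 further: frequency after pTyr selection over input frequency; kinase dosed for 20-30% of maximal phosphorylation in three min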

seq text: GLAELYEYKKK [CKAP5_Y1854]
tgt: Fes (UniProt P07332)
phosphorylation enrichment: 0.719
--
seq text: RIGRKCKKVRF [F8_Y442_Y442C]
tgt: Fes (UniProt P07332)
phosphorylation enrichment: 0.595
--
seq text: LLQKTYNYNVL [SLC4A1_Y553_P548L]
tgt: Fes (UniProt P07332)
phosphorylation enrichment: 1.52
--
seq text: TAALWYIYLHT [ENG_Y612_S615L]
tgt: Fes (UniProt P07332)
phosphorylation enrichment: 1.66
--
seq text: ATGMEYLASQK [FGFR2_Y616_R612T]
tgt: Fes (UniProt P07332)
phosphorylation enrichment: 0.794
--
seq text: AGQKDYDRLRP [RAC3_Y64_E62K]
tgt: Fes (UniProt P07332)
phosphorylation enrichment: 0.761
--
seq text: KDKLPYLFDDP [GPX2_Y125_P126L_YF]
tgt: Fes (UniProt P07332)
phosphorylation enrichment: 0.969
